Target: Integrin alpha-4/beta-1 [T112H] (Homo sapiens, UniProt P05556+P13612, T112H)
Experiment: Jurkat J6 Scintillation Proximity Assay
pKi: −log10 of the molar value.
Mark Not fulfilled for pKi values under 8, and Fulfilled for everything at or above.

1. Cc1ccccc1NC(=O)Nc1ccc(-c2cccn(Cc3ccc([C@H](C)CC(=O)O)cc3)c2=O)c(Cl)c1    Fulfilled
2. Cc1ccccc1NC(=O)Nc1ccc(-c2cccn(Cc3ccc([C@H](C)CC(=O)O)cc3)c2=O)cc1C    Fulfilled
3. CCOc1cc(-c2cccn(Cc3ccc([C@@H](C)CC(=O)O)cc3)c2=O)ccc1NC(=O)Nc1ccccc1C    Fulfilled
4. Cc1ccccc1NC(=O)Nc1ccc(-c2cccn(Cc3ccc([C@@H](C)CC(=O)O)cc3)c2=O)c(C)c1    Not fulfilled
5. CCOc1cc(-c2cccn(Cc3ccc([C@H](C)CC(=O)O)cc3)c2=O)ccc1NC(=O)Nc1ccccc1C    Fulfilled
6. Cc1ccccc1NC(=O)Nc1ccc(-c2cccn(Cc3ccc([C@@H](C)CC(=O)O)cc3)c2=O)cc1OC(F)(F)F    Not fulfilled
7. Cc1ccccc1NC(=O)Nc1ccc(-c2cccn(Cc3ccc([C@@H](C)CC(=O)O)cc3)c2=O)cc1Cl    Fulfilled
8. Cc1ccccc1NC(=O)Nc1ccc(-c2cccn(Cc3ccc([C@H](C)CC(=O)O)cc3)c2=O)c(C)c1    Fulfilled
9. Cc1ccccc1NC(=O)Nc1ccc(-c2cccn(Cc3ccc([C@H](C)CC(=O)O)cc3)c2=O)cc1OC(F)(F)F    Fulfilled
10. CCc1cc(-c2cccn(Cc3ccc([C@@H](C)CC(=O)O)cc3)c2=O)ccc1NC(=O)Nc1ccccc1C    Not fulfilled
11. Cc1ccccc1NC(=O)Nc1ccc(-c2cccn(Cc3ccc([C@@H](C)CC(=O)O)cc3)c2=O)c(Cl)c1    Not fulfilled
12. Cc1ccccc1NC(=O)Nc1ccc(-c2cccn(Cc3ccc([C@H](C)CC(=O)O)cc3)c2=O)cc1Cl    Fulfilled
13. Cc1ccccc1NC(=O)Nc1ccc(-c2cccn(Cc3ccc([C@@H](C)CC(=O)O)cc3)c2=O)cc1C    Fulfilled
